B1: OR4K15 (parent)
chain: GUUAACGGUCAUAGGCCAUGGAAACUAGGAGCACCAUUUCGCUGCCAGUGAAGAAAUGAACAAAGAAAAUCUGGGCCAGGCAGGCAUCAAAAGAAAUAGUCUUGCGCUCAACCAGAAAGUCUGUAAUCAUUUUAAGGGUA

- Variants of: B1
- experimental-details: self-cleavage, relative activity (ratio to wild type); higher = more cleavage; in vitro, sequencing; the parent is a self-cleaving ribozyme
Label Yes for high-side self-cleavage (at or above 0.9) and No for low-side self-cleavage (below it).

variant-label	assigned-class
A89C G136A	Yes
U12C A51U	Yes
G1C A135G	Yes
A23G G136A	Yes
G48A A51G	Yes
A95G A126U	Yes
A22G G31U	No
A22G A33U	Yes
A11G C101U	No
A5U A69G	No
A56C	Yes
A78U U120A	No
A118G U122A	No
U2C U132A	Yes
A52G U130G	No
A30C U120C	No
A55U U87C	Yes
U2A U9C	Yes
A5G U103C	No
A134G G137U	No
A33G A86U	No
U3A A78G	No
C16G U37C	Yes
G14C A55G	Yes
A56G A126G	No
U19C G31U	Yes
A55G U127A	Yes
A54G U57A	Yes
C71U A95U	No
U12A A52G	Yes
G93U	Yes
U87A A118G	Yes
A62C A91G	Yes
G79A U108A	No
U2C U120A	Yes

Data origin: the RNAGym collection of RNA variant scans (doi:10.7554/elife.90254)
